# credit: paper PMC6225123

READOUT LABEL: melting point

Below: 5 compounds and their reported melting point.
{"columns": ["COMPOUND", "melting point"],
 "data": [
  ["COC(=O)CN1CCN(c2cc(Nc3cn(CCc4cccc(O)c4)cn3)nc(C)n2)CC1 [4k]", "127 to 130 °C"],
  ["Cc1nc(Nc2cn(CCc3ccccc3O)cn2)cc(N2CCNCC2)n1 [4f]", "193 to 196 °C"],
  ["Cc1nc(Nc2cn(CCc3cccc(O)c3)cn2)cc(N2CCN(CCO)CC2)n1 [4h]", "150 to 155 °C"],
  ["Cc1nc(Nc2cn(CCc3ccccc3O)cn2)cc(N2CCN(CC(N)=O)CC2)n1 [4g]", "160 to 163 °C"],
  ["Cc1nc(Nc2cn(CCc3cccc(O)c3)cn2)cc(N2CCN(C(=O)OC(C)(C)C)CC2)n1 [4l]", "127 to 130 °C"]
]}

Problem: Would you mind telling me what melting point value was observed for COc1cccc(CCn2cnc(Nc3cc(N4CCN(CC(N)=O)CC4)nc(C)n3)c2)c1 [4b] ?
Result: 198 to 200 °C

Problem: Would you mind telling me what melting point value was observed for Cc1nc(Nc2cn(CCc3cccc(O)c3)cn2)cc(N2CCNCC2)n1 [4i] ?
Result: 193 to 196 °C

----------
In this section we review reported pIC50 values for a set of compounds.
molecular target: Fyn (Homo sapiens, UniProt P06241); construct: (Fyn, LynA, and Yes1, all human recombinant full-length proteins); experiment: Z'-LYTE kinase assay (FRET), SFK profiling; details: isolated enzyme, mean ± SD of two independent experiments
Sequence (P06241 whole entry): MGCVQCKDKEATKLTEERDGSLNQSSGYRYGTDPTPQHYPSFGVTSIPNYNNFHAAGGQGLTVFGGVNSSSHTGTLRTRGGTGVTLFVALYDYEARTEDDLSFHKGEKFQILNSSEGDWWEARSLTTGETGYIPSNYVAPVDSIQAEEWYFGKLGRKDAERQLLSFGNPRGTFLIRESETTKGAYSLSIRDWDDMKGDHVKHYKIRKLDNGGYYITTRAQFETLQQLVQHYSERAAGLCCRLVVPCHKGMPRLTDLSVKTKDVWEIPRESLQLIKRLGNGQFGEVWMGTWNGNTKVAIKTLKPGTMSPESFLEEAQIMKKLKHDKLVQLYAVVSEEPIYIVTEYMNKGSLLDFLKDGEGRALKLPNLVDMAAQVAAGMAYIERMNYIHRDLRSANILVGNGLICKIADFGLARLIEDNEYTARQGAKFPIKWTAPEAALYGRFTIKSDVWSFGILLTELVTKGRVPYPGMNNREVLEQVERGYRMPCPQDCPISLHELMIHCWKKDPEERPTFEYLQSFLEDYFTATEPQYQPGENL
For clarity, pIC50 is expressed as the negative log10 of concentration in mol/L.

Problem: Would you mind telling me what pIC50 value was observed for Cc1nc(Nc2cn(CCc3cccc(O)c3)cn2)cc(N2CCNCC2)n1 ?
Result: 8.00

----------
biological target: active human recombinant Src (Homo sapiens); assay: Z'-LYTE kinase assay (FRET), primary screen; conditions: isolated enzyme, mean ± SD of two independent experiments
Sequence (P12931 whole entry): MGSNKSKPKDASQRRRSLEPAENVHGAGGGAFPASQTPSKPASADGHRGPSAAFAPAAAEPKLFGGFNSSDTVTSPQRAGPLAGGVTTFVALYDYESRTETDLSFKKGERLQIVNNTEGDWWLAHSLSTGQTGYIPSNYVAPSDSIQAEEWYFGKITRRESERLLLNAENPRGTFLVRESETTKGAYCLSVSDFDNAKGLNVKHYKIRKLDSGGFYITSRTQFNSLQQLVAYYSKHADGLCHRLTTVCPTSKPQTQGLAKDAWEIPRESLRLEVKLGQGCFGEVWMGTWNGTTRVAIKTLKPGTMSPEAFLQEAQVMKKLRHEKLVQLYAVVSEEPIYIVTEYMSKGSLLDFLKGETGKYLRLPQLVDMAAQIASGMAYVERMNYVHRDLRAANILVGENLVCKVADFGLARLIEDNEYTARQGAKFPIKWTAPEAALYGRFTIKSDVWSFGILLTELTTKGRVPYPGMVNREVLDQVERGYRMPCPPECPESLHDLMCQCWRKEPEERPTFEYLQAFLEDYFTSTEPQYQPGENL
READOUT LABEL: IC50 (nM)
Record the value in nM, omitting the unit from your answer.

Below: 2 compounds and their reported IC50.
{"columns": ["INPUT SMILES", "IC50, nM"],
 "data": [
  ["COc1ccccc1CCn1cnc(Nc2cc(N3CCN(CCO)CC3)nc(C)n2)c1", 225],
  ["Cc1nc(Nc2cn(CCc3cccc(O)c3)cn2)cc(N2CCN(CC(N)=O)CC2)n1", 40]
]}

Turning now to a further compound:
Problem: Would you mind telling me what IC50 value was observed for Cc1nc(Nc2cn(CCc3cccc(O)c3)cn2)cc(N2CCN(CCO)CC2)n1 ?
Result: 93

----------
target: LynA (Homo sapiens); construct: (Fyn, LynA, and Yes1, all human recombinant full-length proteins); test: Z'-LYTE kinase assay (FRET), SFK profiling; settings: isolated enzyme, mean ± SD of two independent experiments; read-out: Lyn IC50
Sequence (P07948 whole entry): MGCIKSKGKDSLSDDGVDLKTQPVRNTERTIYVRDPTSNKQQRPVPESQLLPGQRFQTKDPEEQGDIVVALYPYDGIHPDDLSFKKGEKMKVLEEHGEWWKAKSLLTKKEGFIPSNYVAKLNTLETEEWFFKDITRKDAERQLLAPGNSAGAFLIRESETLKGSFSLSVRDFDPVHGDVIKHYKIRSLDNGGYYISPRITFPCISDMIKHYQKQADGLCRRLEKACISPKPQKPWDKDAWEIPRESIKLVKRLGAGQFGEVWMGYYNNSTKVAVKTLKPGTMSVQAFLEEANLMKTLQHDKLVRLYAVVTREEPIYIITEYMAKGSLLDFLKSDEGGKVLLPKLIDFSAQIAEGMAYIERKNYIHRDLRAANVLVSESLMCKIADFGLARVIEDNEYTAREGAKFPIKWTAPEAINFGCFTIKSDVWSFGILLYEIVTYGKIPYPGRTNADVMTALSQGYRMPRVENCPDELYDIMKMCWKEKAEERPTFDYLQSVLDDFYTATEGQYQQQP
READOUT LABEL: IC50 (nM)
Record the value in nM, omitting the unit from your answer.

{"columns": ["MOLECULE", "READOUT LABEL", "MEASUREMENT UNITS", "MEASURED RESULT"],
 "data": [
  ["Cc1nc(Nc2cn(CCc3ccccc3O)cn2)cc(N2CCN(CC(N)=O)CC2)n1 [4g]", "IC50", "nM", 19],
  ["COc1cccc(CCn2cnc(Nc3cc(N4CCN(CC(N)=O)CC4)nc(C)n3)c2)c1 [4b]", "IC50", "nM", 1810],
  ["Cc1nc(Nc2cn(CCc3cccc(O)c3)cn2)cc(N2CCN(CCO)CC2)n1 [4h]", "IC50", "nM", 20],
  ["COc1cccc(CCn2cnc(Nc3cc(N4CCN(CCO)CC4)nc(C)n3)c2)c1 [4a]", "IC50", "nM", 451],
  ["COC(=O)CN1CCN(c2cc(Nc3cn(CCc4cccc(O)c4)cn3)nc(C)n2)CC1 [4k]", "IC50", "nM", 18]
]}

Problem: Would you mind telling me what IC50 value was observed for Cc1nc(Nc2cn(CCc3cccc(O)c3)cn2)cc(N2CCN(CC(N)=O)CC2)n1 [4j] ?
Result: 10

Problem: Would you mind telling me what IC50 value was observed for COc1ccccc1CCn1cnc(Nc2cc(N3CCN(CC(N)=O)CC3)nc(C)n2)c1 [4d] ?
Result: 1200

Problem: Would you mind telling me what IC50 value was observed for Cc1nc(Nc2cn(CCc3ccccc3O)cn2)cc(N2CCN(CCO)CC2)n1 [4e] ?
Result: 17

Problem: Would you mind telling me what IC50 value was observed for Cc1nc(Nc2cn(CCc3cccc(O)c3)cn2)cc(N2CCN(C(=O)OC(C)(C)C)CC2)n1 [4l] ?
Result: 26
